Values compiled from PubChem BioAssay AID1963850.

tested on: 192522-019-R-J2-PDC complex tumor spheroid viability; assay: Anticancer human tumor 192522-019-R-J2-PDC patient-derived colon adenocarcinoma cell line growth inhibition [POLQ]; details: second compound 0.0316 µM; first compound 0.316 µM; stronger effect = lower value
PROPERTY_MEASURED: viability, T/C (%)

[[record]]
compound = "CCc1c2c(nc3ccc(O)cc13)-c1cc3c(c(=O)n1C2)COC(=O)[C@]3(O)CC + Cc1cccc(N(C)C(=O)C2C(O)CCN2c2nc(C)cc(C(F)(F)F)c2C#N)c1"
numeric_value = 40.3

[[record]]
compound = "CNCc1ccc(-c2[nH]c3cc(F)cc4c3c2CCNC4=O)cc1 + COC1C(OC(N)=O)C(O)C(Oc2ccc3c(O)c(NC(=O)c4ccc(O)c(CC=C(C)C)c4)c(=O)oc3c2C)OC1(C)C"
numeric_value = 96

[[record]]
compound = "COc1cc(C2c3cc4c(cc3C(OC3OC5COC(C)OC5C(O)C3O)C3COC(=O)C23)OCO4)cc(OC)c1O (stereo not drawn) + COC1C(OC(N)=O)C(O)C(Oc2ccc3c(O)c(NC(=O)c4ccc(O)c(CC=C(C)C)c4)c(=O)oc3c2C)OC1(C)C"
numeric_value = 92.4


###

tested on: 192522-019-R-J2-PDC complex tumor spheroid viability; assay: Anticancer human tumor 192522-019-R-J2-PDC cell line growth inhibition [POLQ]; conditions: second compound 0.1 µM; first compound 0.00316 µM; stronger effect = lower value;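 further: spheroids exposed to drugs for seven days before reading; 100% = DMSO vehicle control viability in luminescence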
PROPERTY_MEASURED: viability, T/C (%)

[[record]]
compound = "CC[C@@]1(O)C(=O)OCc2c1cc1n(c2=O)Cc2cc3c(CN(C)C)c(O)ccc3nc2-1 + Cc1cccc(N(C)C(=O)C2C(O)CCN2c2nc(C)cc(C(F)(F)F)c2C#N)c1"
unit_label = "%"
numeric_value = 102

[[record]]
compound = "Cn1ncnc1[C@H]1c2n[nH]c(=O)c3cc(F)cc(c23)N[C@@H]1c1ccc(F)cc1 + Cc1cccc(N(C)C(=O)C2C(O)CCN2c2nc(C)cc(C(F)(F)F)c2C#N)c1"
unit_label = "%"
numeric_value = 105

[[record]]
compound = "COc1cccc(OCCCN)c1-c1cc(Nc2cnc(C#N)cn2)n[nH]1 + COC1C(OC(N)=O)C(O)C(Oc2ccc3c(O)c(NC(=O)c4ccc(O)c(CC=C(C)C)c4)c(=O)oc3c2C)OC1(C)C"
unit_label = "%"
numeric_value = 94.7

[[record]]
compound = "COc1cccc(OCCCN)c1-c1cc(Nc2cnc(C#N)cn2)n[nH]1 + Nc1ccc(C#CCN(C(=O)Cc2ncc(C(F)(F)F)cc2C(F)(F)F)c2ccc(F)cc2)nn1"
unit_label = "%"
numeric_value = 102

[[record]]
compound = "CCc1c2c(nc3ccc(O)cc13)-c1cc3c(c(=O)n1C2)COC(=O)[C@]3(O)CC + Cc1cccc(N(C)C(=O)C2C(O)CCN2c2nc(C)cc(C(F)(F)F)c2C#N)c1"
unit_label = "%"
numeric_value = 91.5

[[record]]
compound = "CCc1c2c(nc3ccc(O)cc13)-c1cc3c(c(=O)n1C2)COC(=O)[C@]3(O)CC + COC1C(OC(N)=O)C(O)C(Oc2ccc3c(O)c(NC(=O)c4ccc(O)c(CC=C(C)C)c4)c(=O)oc3c2C)OC1(C)C"
unit_label = "%"
numeric_value = 84

[[record]]
compound = "C=CCn1c(=O)c2cnc(Nc3ccc(N4CCN(C)CC4)cc3)nc2n1-c1cccc(C(C)(C)O)n1 + COC1C(OC(N)=O)C(O)C(Oc2ccc3c(O)c(NC(=O)c4ccc(O)c(CC=C(C)C)c4)c(=O)oc3c2C)OC1(C)C"
unit_label = "%"
numeric_value = 101

[[record]]
compound = "Cn1ncnc1[C@H]1c2n[nH]c(=O)c3cc(F)cc(c23)N[C@@H]1c1ccc(F)cc1 + Nc1ccc(C#CCN(C(=O)Cc2ncc(C(F)(F)F)cc2C(F)(F)F)c2ccc(F)cc2)nn1"
unit_label = "%"
numeric_value = 107

[[record]]
compound = "CCc1c2c(nc3ccc(O)cc13)-c1cc3c(c(=O)n1C2)COC(=O)[C@]3(O)CC + Nc1ccc(C#CCN(C(=O)Cc2ncc(C(F)(F)F)cc2C(F)(F)F)c2ccc(F)cc2)nn1"
unit_label = "%"
numeric_value = 94.8

